Origin of the recorded values: patent US20250270319A1

- Target under test: human CD33 on primary human dendritic cells (human, UniProt P20138 18-364)
- Sequence (P20138 18-364): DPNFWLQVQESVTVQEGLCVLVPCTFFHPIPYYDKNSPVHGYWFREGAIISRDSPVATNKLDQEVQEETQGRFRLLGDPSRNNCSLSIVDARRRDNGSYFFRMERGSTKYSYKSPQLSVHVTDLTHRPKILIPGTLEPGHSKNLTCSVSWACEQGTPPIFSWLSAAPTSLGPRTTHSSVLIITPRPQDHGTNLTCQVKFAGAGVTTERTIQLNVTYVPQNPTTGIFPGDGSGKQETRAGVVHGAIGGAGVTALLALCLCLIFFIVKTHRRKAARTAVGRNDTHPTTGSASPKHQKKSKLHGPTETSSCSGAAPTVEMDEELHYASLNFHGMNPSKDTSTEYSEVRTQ
- Procedure details: cell-based or functional assay
# if value of Receptor downregulation, (EC50) (pM) reaches 60 pM, tag class 1; if it stays below, tag class 0

Study these solved cases before continuing.
| Binder | Category label |
| --- | --- |
| anti-CD33 antibody 6C7H45 (antibody, V domains shown, VH/VL only) VH: EVQLVESGGGLVQPGGSLRLSCAASGFTFSEYAMLWVRQAPGKGLEWVGEIRLKSNNYVTNYAASVKGRFTISRDDSKNSVYLQMNSLKTEDTGVYYCTRAGYYVPFAYWGQGTLVTVSS VL: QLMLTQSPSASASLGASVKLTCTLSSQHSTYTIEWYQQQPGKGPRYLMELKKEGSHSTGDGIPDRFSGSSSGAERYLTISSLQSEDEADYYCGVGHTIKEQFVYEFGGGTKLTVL | class 0 |
| anti-CD33 antibody 6C7H48 (antibody, V domains shown, VH/VL only) VH: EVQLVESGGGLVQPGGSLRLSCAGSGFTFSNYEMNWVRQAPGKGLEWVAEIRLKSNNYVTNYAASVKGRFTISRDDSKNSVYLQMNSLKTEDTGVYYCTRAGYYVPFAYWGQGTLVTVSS VL: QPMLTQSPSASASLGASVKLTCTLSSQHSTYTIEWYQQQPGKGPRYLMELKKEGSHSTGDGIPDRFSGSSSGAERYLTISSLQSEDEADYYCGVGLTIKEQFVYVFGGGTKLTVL | class 0 |
| anti-CD33 antibody 6C7H33 (antibody, V domains shown, VH/VL only) VH: EVQLVESGGGLVQPGGSLRLSCAASGSTFSEYDMLWVRQAPGKGLEWVGEIRLKSNNYVTNYAASVKGRFTISRDDSKNSVYLQMNSLKTEDTGVYYCTRAGYYVPFAYWGQGTLVTVSS VL: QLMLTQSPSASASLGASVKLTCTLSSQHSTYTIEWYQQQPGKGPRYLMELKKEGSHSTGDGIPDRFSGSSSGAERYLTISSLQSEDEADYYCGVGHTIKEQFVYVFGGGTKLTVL | class 0 |

Attention now turns to another entry.
Inquiry: Can anti-CD33 antibody 6C7H49 (antibody, V domains shown, VH/VL only) VH: EVQLVESGGGLVQPGGSLRLSCAASGFTFSEYDMLWVRQAPGKGLEWVGEIRLKSNNYVTNYAASVKGRFTISRDDSKNSVYLQMNSLKTEDTGVYYCTRAGYYVPFAYWGQGTLVTVSS VL: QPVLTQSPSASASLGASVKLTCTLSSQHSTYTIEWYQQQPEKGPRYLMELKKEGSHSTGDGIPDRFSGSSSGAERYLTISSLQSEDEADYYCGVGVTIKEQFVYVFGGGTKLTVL be said to have Receptor downregulation, (EC50) (pM) at or above 60 pM?
Reply text: class 1
